- Test system: HepG2 Srxn1-GFP reporter cells (+30 nM CDDO-Me)
- assay info: Srxn1-GFP intensity median modified Z-score relative to plate median; higher = stronger NRF2 / oxidative stress reporter activation, active = hit call of the paper
- condition summary: 10 µM; exposure time: 24h
About 330 (14%) of roughly 2,300 compounds showed activity. A selection follows.
parameter measured: Srxn1-GFP intensity median modified Z-score
// no unit, no text: just the number

Input line: Query the reported Srxn1-GFP intensity median modified Z-score for HepG2 Srxn1-GFP reporter cells (+30 nM CDDO-Me); item: `COc1c(O)cccc1O`
Output line: 3.35

Continuing:
Input line: Query the reported Srxn1-GFP intensity median modified Z-score for HepG2 Srxn1-GFP reporter cells (+30 nM CDDO-Me); item: CC(C)=CCCC1(C)C=Cc2c(O)c3c(c(CC=C(C)C)c2O1)OC12C(=CC4CC1C(C)(C)OC2(C=CC(C)C(=O)O)C4=O)C3=O (stereo unspecified)
Output line: 127

Input line: Query the reported Srxn1-GFP intensity median modified Z-score for HepG2 Srxn1-GFP reporter cells (+30 nM CDDO-Me); item: CC1(C)OC2CC3C4CC(F)=C5CC(=O)CCC5(C)C4C(O)CC3(C)C2(C(=O)CO)O1 (stereo unspecified)
Output line: -0.815

Input line: Query the reported Srxn1-GFP intensity median modified Z-score for HepG2 Srxn1-GFP reporter cells (+30 nM CDDO-Me); item: O=C(C(O)CO)C(O)CO (stereo unspecified)
Output line: -0.0858

Input line: Query the reported Srxn1-GFP intensity median modified Z-score for HepG2 Srxn1-GFP reporter cells (+30 nM CDDO-Me); item: COC=C1CS[C@@H]2C(=NC(=O)C(NOC)c3csc(=N)[nH]3)C(=O)N2C1C(=O)OC(C)OC(=O)OC(C)C (stereo partly specified)
Output line: -0.299

Input line: Query the reported Srxn1-GFP intensity median modified Z-score for HepG2 Srxn1-GFP reporter cells (+30 nM CDDO-Me); item: COC(=O)C(C)=CCC12OC(C)(C)C3CC(=CC4C(=O)c5c(OC)c6c(c(CC=C(C)C)c5OC431)OC(C)(CCC=C(C)C)C=C6)C2=O (stereo unspecified)
Output line: 55.9

Input line: Query the reported Srxn1-GFP intensity median modified Z-score for HepG2 Srxn1-GFP reporter cells (+30 nM CDDO-Me); item: `COc1ccccc1O`
Output line: -0.0107
